In this section, each of the binders is paired with its reported Kd.
Target: T1, his-tagged human CDH6 extracellular region protein (hCDH6 ECD-his) (human, UniProt P55285 19-615)
T1 construct: also called Human CDH6-his; hCDH6-his; not shown: his tag
T1 sequence: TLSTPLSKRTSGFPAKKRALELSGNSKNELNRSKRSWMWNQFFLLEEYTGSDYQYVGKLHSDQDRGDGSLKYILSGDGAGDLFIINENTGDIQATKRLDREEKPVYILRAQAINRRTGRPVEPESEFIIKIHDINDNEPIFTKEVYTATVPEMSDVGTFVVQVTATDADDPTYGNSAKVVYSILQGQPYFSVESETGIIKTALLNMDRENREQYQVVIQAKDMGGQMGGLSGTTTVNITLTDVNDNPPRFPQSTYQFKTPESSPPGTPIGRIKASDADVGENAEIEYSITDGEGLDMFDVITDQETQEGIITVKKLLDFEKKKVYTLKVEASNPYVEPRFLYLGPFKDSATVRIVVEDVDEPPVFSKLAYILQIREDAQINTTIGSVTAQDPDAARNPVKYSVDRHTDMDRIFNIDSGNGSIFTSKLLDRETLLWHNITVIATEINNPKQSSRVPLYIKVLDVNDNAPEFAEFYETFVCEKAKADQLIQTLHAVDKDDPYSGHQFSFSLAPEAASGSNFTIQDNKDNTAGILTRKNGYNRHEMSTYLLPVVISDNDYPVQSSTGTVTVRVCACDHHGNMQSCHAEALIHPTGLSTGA
Assay: SPR Biacore, antibody captured on Protein A
ATTRIBUTE MEASURED: Kd (nM)

[[record]]
binder = "hCDH6-6-H1L2 (antibody, V domains shown, Humanized) VH: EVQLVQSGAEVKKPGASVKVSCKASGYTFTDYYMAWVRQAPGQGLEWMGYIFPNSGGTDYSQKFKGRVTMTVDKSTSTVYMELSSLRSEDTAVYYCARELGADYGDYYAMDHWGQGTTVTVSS VL: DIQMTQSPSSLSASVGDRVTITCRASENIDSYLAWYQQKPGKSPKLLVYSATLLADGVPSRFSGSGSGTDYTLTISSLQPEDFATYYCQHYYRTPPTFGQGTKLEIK"
units_of_measure = "nM"
numeric_result = 138

[[record]]
binder = "CHI-CDH6-6 (antibody, human IgG1, kappa, V domains shown, also called CHI-hCDH6-6; chimeric antibody of murine CDH6-6) VH: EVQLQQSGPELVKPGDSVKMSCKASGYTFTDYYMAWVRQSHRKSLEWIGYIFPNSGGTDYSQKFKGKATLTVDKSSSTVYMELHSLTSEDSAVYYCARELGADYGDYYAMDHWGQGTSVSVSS VL: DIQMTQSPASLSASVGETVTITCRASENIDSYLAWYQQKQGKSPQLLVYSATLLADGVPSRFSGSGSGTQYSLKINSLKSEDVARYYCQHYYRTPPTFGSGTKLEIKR"
units_of_measure = "nM"
numeric_result = 87.1

[[record]]
binder = "hCDH6-6-H2L2 (antibody, V domains shown, Humanized) VH: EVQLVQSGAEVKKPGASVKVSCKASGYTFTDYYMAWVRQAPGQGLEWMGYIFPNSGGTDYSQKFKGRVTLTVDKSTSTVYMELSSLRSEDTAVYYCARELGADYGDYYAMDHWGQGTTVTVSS VL: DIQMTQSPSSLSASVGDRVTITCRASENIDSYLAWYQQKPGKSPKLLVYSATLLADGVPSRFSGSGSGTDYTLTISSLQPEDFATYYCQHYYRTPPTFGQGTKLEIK"
units_of_measure = "nM"
numeric_result = 89.8

[[record]]
binder = "hCDH6-6-H2L1 (antibody, V domains shown, Humanized) VH: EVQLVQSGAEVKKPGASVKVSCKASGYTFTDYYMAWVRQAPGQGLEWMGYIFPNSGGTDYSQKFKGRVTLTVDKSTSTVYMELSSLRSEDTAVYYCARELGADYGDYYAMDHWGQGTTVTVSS VL: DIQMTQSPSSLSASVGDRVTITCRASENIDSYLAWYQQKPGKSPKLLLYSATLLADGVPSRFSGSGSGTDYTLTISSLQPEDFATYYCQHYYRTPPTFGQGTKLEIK"
units_of_measure = "nM"
numeric_result = 133

[[record]]
binder = "hCDH6-6-H1L1 (antibody, V domains shown, Humanized) VH: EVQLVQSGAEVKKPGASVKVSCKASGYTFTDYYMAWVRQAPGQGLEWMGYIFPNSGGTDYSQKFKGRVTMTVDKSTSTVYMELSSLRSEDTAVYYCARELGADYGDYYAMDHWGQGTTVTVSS VL: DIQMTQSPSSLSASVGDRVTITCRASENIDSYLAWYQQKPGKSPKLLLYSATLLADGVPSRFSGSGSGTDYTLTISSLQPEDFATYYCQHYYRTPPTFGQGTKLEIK"
units_of_measure = "nM"
numeric_result = 192

